- System: ACHN renal
- method_notes: NCI-60 one-dose screen, 48 h
- condition_label: 10 µM unless noted
This is part of a sample that, as a whole, favours compounds with a hit. Of some 83,000 tested, about 20% had one in any assay. Active and inactive are the calls of the source. The calls were made as follows: active = growth percent below 10; inactive = the rest.
Outcome codes: active, inactive

1) CC(C)CSc1nc(NCCc2c[nH]c3ccccc23)c(C#N)c(-c2ccc(Cl)cc2)n1; inactive
2) N/C(=N\c1nc2ccccc2s1)NC(=O)Nc1ccccc1Br; active
3) COc1ccc(C(=O)/C=C/c2ccc(OCc3ccccc3)c(OC)c2)cc1OC; inactive
4) CCCCSc1nc(NCCc2c[nH]c3ccccc23)c(C#N)c(-c2ccc(OC)cc2)n1; inactive
5) COc1cc2nc(SCc3ccccc3)n(-c3ccc(Cl)cc3)c(=O)c2cc1OC; active
6) O=c1[nH]c2ccccc2cc1CSc1nccc(-c2ccc3ccccc3c2)n1; inactive
7) N#Cc1c(-c2ccc(Cl)cc2)nc2n[nH]c(-c3ccc(Cl)cc3)c2c1-c1cccs1; inactive
8) COc1cc(OC)cc(C(=O)Nc2cccc(-c3cn(-c4ccc(S(N)(=O)=O)cc4)nn3)c2)c1; inactive
9) CCN(CC)CCOc1ccc(Nc2ncc3cc(-c4ccc(O)c(C#N)c4)c(=O)n(C)c3n2)cc1; inactive
10) O=C(N=Nc1c(O)[nH]c2ccc(Cl)cc12)c1ccc2nc(-c3ccccc3)[nH]c2c1; inactive
